# clearance annotations
experiment: in vivo; settings: rat, iv, 1 mg/kg

compound	unit text	clearance
Cn1ccc(-c2cc(Cl)c(Cl)c3[nH]c4c(c23)CN(C(=O)CO)CC4)n1	mL/min/kg	20.7
O=C(CO)N1CCC2(CCc3[nH]c4c(Cl)c(Cl)cc(-c5ccnc(C(F)(F)F)c5)c4c3C2)C1 (configuration not stated)	mL/min/kg	15.5

* * *

target: Cyclic GMP-AMP synthase (Homo sapiens); assay: Inhibition of full length recombinant human cGAS expressed in Escherichia coli BL21 (DE3) incubated for 7 hrs by Kinase-glo max luminescent kinase assay
assay metric: IC50 (nM)

given smiles	assay metric	data value
Cn1ccc(-c2cc(Cl)c(Cl)c3[nH]c4c(c23)CN(C(=O)CO)CC4)n1	IC50	51

* * *

molecular target: Cyclic GMP-AMP synthase (Mus musculus)
Sequence (Q8C6L5 whole entry): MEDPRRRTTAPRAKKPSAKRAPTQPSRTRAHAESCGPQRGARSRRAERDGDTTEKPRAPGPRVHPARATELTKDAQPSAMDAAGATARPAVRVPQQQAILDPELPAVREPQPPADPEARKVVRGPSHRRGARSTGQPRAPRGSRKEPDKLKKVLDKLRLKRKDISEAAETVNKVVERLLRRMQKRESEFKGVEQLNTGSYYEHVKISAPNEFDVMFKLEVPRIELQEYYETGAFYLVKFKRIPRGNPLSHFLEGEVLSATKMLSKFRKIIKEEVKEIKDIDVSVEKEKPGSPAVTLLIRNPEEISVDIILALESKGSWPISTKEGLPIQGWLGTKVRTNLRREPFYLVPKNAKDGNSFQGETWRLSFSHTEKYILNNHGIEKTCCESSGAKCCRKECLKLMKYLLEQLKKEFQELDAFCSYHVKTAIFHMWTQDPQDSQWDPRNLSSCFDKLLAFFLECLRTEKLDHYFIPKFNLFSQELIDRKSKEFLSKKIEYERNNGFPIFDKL

compound	target under test	IC50, nM
C#CC(=O)N1CCn2cccc2C1c1ccccc1 (stereo unspecified)	Cyclic GMP-AMP synthase (Mus musculus)	970

* * *

# AUC(0-t) annotations
experiment: in vivo; conditions: rat, po, 3 mg/kg
Description: AUC last in rat at 3 mg/kg, po
assay metric: AUC(0-t) (ng·h/mL)

molecule	assay metric	unit text	data value
Cn1ccc(-c2cc(Cl)c(Cl)c3[nH]c4c(c23)CN(C(=O)CO)CC4)n1	AUC(0-t)	ng·h/mL	1520
O=C(CO)N1CCC2(CCc3[nH]c4c(Cl)c(Cl)cc(-c5ccnc(C(F)(F)F)c5)c4c3C2)C1 (configuration not stated)	AUC(0-t)	ng·h/mL	920

* * *

# bioavailability annotations
experiment: in vivo; settings: rat, po, 3 mg/kg
Description: Oral bioavailability in rat at 3 mg/kg
assay metric: bioavailability (%)

compound	data value
Cn1ccc(-c2cc(Cl)c(Cl)c3[nH]c4c(c23)CN(C(=O)CO)CC4)n1	64.1
O=C(CO)N1CCC2(CCc3[nH]c4c(Cl)c(Cl)cc(-c5ccnc(C(F)(F)F)c5)c4c3C2)C1 (configuration not stated)	30

* * *

target: Cyclic GMP-AMP synthase (Homo sapiens, UniProt Q8N884); test: Inhibition of human cGas incubated for 120 mins
Sequence (Q8N884 whole entry): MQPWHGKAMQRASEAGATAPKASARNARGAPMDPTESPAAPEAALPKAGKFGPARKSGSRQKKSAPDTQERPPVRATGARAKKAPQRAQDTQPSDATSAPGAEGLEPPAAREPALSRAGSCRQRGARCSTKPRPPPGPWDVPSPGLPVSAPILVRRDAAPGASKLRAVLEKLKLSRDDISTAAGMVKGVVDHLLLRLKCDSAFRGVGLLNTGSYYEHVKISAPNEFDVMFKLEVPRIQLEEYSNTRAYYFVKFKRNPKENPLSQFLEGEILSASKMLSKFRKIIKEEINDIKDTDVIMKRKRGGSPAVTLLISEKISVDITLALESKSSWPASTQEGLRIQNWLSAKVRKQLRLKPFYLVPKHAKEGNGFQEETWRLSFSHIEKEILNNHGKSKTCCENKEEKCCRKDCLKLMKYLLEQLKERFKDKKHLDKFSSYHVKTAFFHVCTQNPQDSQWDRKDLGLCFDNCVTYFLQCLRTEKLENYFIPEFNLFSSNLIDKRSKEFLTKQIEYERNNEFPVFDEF
pIC50: −log10 of the molar value.
assay metric: pIC50

compound	target under test	data value
Cc1nn(-c2cc3ccc(Cl)c(Cl)c3[nH]2)c(O)c1C1OC(=O)c2ccccc21 (stereo unspecified)	Cyclic GMP-AMP synthase (Homo sapiens, UniProt Q8N884)	6.96

* * *

experiment: MRT last in rat at 3 mg/kg, po; conditions: in vivo
# MRT last annotations
assay metric: MRT last (h)

compound	unit text	data value
Cn1ccc(-c2cc(Cl)c(Cl)c3[nH]c4c(c23)CN(C(=O)CO)CC4)n1	h	3.56
O=C(CO)N1CCC2(CCc3[nH]c4c(Cl)c(Cl)cc(-c5ccnc(C(F)(F)F)c5)c4c3C2)C1 (configuration not stated)	h	2.99

* * *

test: in vivo; settings: rat, po, 3 mg/kg
Description: Cmax in rat at 3 mg/kg, po

molecule	unit text	Cmax
O=C(CO)N1CCC2(CCc3[nH]c4c(Cl)c(Cl)cc(-c5ccnc(C(F)(F)F)c5)c4c3C2)C1 (configuration not stated)	ng/mL	223
Cn1ccc(-c2cc(Cl)c(Cl)c3[nH]c4c(c23)CN(C(=O)CO)CC4)n1	ng/mL	375

* * *

molecular target: UniProtKB Q8N884; assay: Inhibition of cGAS in human THP1-Dual cells preincubated for 1 hr followed by cGAMP addition and measured after 24 hrs by luminescence based QUANTI-Luc assay
pIC50: −log10 of the molar value.
Threshold rule: pIC50 greater than or equal to 5 is Condition met; below that, Condition not met.

compound	class
Cn1ccc(-c2cc(Cl)c(Cl)c3[nH]c4c(c23)CC2(CCN(C(=O)CO)CC2)C4)n1	Condition not met
O=C(CO)N1CCC2(CCc3[nH]c4c(Cl)c(Cl)cc(-c5ccnc(C(F)(F)F)n5)c4c3C2)C1 (configuration not stated)	Condition met
C[C@@H](O)C(=O)N1CCC2(CCc3[nH]c4c(Cl)c(Cl)cc(-c5ccnc(C(F)(F)F)c5)c4c3C2)C1 (some centres not stated)	Condition not met
N#Cc1cc(-c2cc(Cl)c(Cl)c3[nH]c4c(c23)CC2(CC4)CCN(C(=O)CO)C2)ccn1 (configuration not stated)	Condition met
NCC(=O)N1CCC2(CCc3[nH]c4c(Cl)c(Cl)cc(-c5ccnc(C(F)(F)F)c5)c4c3C2)C1 (configuration not stated)	Condition met
Cn1cc(-c2cc(Cl)c(Cl)c3[nH]c4c(c23)CC2(CC4)CCN(C(=O)CO)C2)cn1 (configuration not stated)	Condition not met
Cn1ccc(-c2cc(Cl)c(Cl)c3[nH]c4c(c23)CC2(CC4)CN(C(=O)CO)C2)n1	Condition not met
Cn1nc(C(F)(F)F)cc1-c1cc(Cl)c(Cl)c2[nH]c3c(c12)CC1(CC3)CCN(C(=O)CO)C1 (configuration not stated)	Condition met
O=C(CO)N1CCC2(CCc3[nH]c4c(Cl)c(Cl)cc(-c5ccnc(OC(F)F)c5)c4c3C2)C1 (configuration not stated)	Condition met
Cn1ccc(-c2cc(Cl)c(Cl)c3c2[C@@H]2CN(C(=O)CO)CC[C@@H]2N3)n1	Condition not met
C[C@@H](N)C(=O)N1CCC2(CCc3[nH]c4c(Cl)c(Cl)cc(-c5ccnc(C(F)(F)F)c5)c4c3C2)C1 (some centres not stated)	Condition met
